# TEST DETAILS: Cell viability (nucleus counts, DAPI image) in AML12 cells
# Assay type: cell-based
# MEASUREMENT SETUP: mouse; compound 100 μg/mL; 24 h; AML12; nucleus counts of DMSO = 100%; read-out: Cell Viability (%, 24h, DAPI Image)
MEASUREMENT TYPE: viability at 24 h, 100 μg/mL (%)
Numbers only, in %.

- MOLECULE: "CC[C@H](CC[C@@H](C)[C@H]1CC[C@H]2[C@@H]3CC=C4C[C@@H](O)CC[C@]4(C)[C@H]3CC[C@]12C)C(C)C [β-sitosterol (30), β-sitosterol]"
  UNITS OF MEASURE: "%"
  EXPERIMENTAL VALUE: 128

Exam item: I am curious: what viability at 24 h, 100 μg/mL value has been reported for COc1cc(C=O)cc(OC)c1O [syringaldehyde (25), syringaldehyde] ?
Marked response: 138

----------
# TEST DETAILS: Cell viability (nucleus counts, DAPI image) in AML12 cells
# Type: cell-based
# MEASUREMENT SETUP: mouse, AML12 cells; compound 100 μg/mL; 24 h; AML12; nucleus counts of DMSO = 100%; read-out: Cell Viability (%, 24h, DAPI Image)
Assign viability at 24 h, 100 μg/mL to each entry below.
Numbers only, in %.

Illustrative cases are given below, each with its answer.
- MOLECULE: "C=Cc1c(C)c2cc3nc(c4c5[nH]c(cc6nc(cc1[nH]2)C(C)=C6CC)c(C)c5C(=O)[C@@H]4C(=O)OC)[C@@H](CCC(=O)OC)[C@@H]3C [methyl pheophorbide a (37), methyl pheophorbide a]"
  MEASUREMENT TYPE: "viability at 24 h, 100 μg/mL"
  EXPERIMENTAL VALUE: 99.5
- MOLECULE: "Oc1cc(O)c2c(c1)O[C@@H](c1ccc(O)c(O)c1)[C@H](O)C2 [(−)-catechin (16), (−)-catechin]"
  MEASUREMENT TYPE: "viability at 24 h, 100 μg/mL"
  EXPERIMENTAL VALUE: 154
- MOLECULE: "C[C@H]1[C@H](C)CC[C@]2(C(=O)O)CC[C@]3(C)C(=CC[C@@H]4[C@@]5(C)CC[C@H](O)C(C)(C)[C@@H]5CC[C@]43C)[C@H]12 [ursolic acid (11), ursolic acid]"
  MEASUREMENT TYPE: "viability at 24 h, 100 μg/mL"
  EXPERIMENTAL VALUE: 146
- MOLECULE: "Oc1cc(O)c2c(c1)O[C@H](c1ccc(O)c(O)c1)[C@H](O)C2 [(−)-epicatechin (18), (−)-epicatechin]"
  MEASUREMENT TYPE: "viability at 24 h, 100 μg/mL"
  EXPERIMENTAL VALUE: 146

Exam item: I am curious: what viability at 24 h, 100 μg/mL value has been reported for C=C(C)[C@@H]1CC[C@]2(C)CC[C@]3(C)[C@H](CC[C@@H]4[C@@]5(C)CC[C@H](O)C(C)(C)[C@@H]5CC[C@]43C)[C@@H]12 [lupeol (9), lupeol] ?
Marked response: 114

----------
# Tested on: fMLP/CB-induced human neutrophils
# TEST DETAILS: Superoxide anion generation in fMLP/CB-induced human neutrophils
# Format: cell-based
# MEASUREMENT SETUP: fMLP/CB-induced human neutrophils; mean ± S.E.M. (n = 3–4)
# Description: NAFLD is accompanied by inflammation. In the NASH stage, the liver is inflamed. As the NAFLD progresses, persistent inflammation causes scar tissue around the liver; this is called the fibrosis stage. […] To explore the potential of compounds for managing inflammation, eight compounds were preliminarily evaluated for their effects on neutrophil pro-inflammatory responses by suppressing fMLP/CB-induced superoxide anion generation and elastase release (Figure 6 and Table 4). […]
MEASUREMENT TYPE: IC50

- MOLECULE: "CC1(C)CCC23CCC4(C)C5(C)CCC6C(C)(CO)C(O)C(O)CC6(C)C5C5OC5C4(OC2=O)C3C1 (stereo not drawn)"
  MEASUREMENT TYPE: "IC50"
  EXPERIMENTAL VALUE: "> 10 µM"
- MOLECULE: "C=C(C)C1CCC2(C(=O)O)CCC3(C)C(CCC4C5(C)CCC(OC(=O)C=Cc6ccc(O)c(O)c6)C(C)(C)C5CCC43C)C12 (single isomer, unassigned; (+)) [(+)-3β-O-trans-caffeoyl betulinic acid]"
  MEASUREMENT TYPE: "IC50"
  EXPERIMENTAL VALUE: "> 10 µM"

Next, consider the following molecule.
Exam item: I am curious: what IC50 value has been reported for CC1(C)CC[C@]2(C(=O)O)CC[C@]3(C)C(=CCC4[C@@]5(C)CC[C@H](OC(=O)/C=C/c6ccc(O)c(O)c6)C(C)(C)C5CC[C@]43C)C2C1 (stereo partly drawn) [3-O-(E)-caffeoyloleanolic acid (13), 3-O-(E)-caffeoyloleanolic acid] ?
Marked response: 3.01 µM
